# credit: patent US20160096826A1

# protocol-notes: in vivo
# test-settings: male, Wistar, rat, plasma, po, 30 mg/kg, Vz/F, oral 30 mg/kg, male rats
property-label: Vd/F (L/kg)
One number for each entry, in L/kg.

Batch lookup, Vd/F per entry.
1. CS(=O)(=O)CCNCc1ccc(-c2ccc3ncnc(Nc4ccc(OCc5cccc(F)c5)c(Cl)c4)c3c2)o1 [Form I]
2. CS(=O)(=O)CCNCc1ccc(-c2ccc3ncnc(Nc4ccc(OCc5cccc(F)c5)c(Cl)c4)c3c2)o1.Cc1ccc(S(=O)(=O)O)cc1 [Lapatinib ditosylate monohydrate, reference compound]

OUT:
6.83
4.38

====

# protocol-notes: pKa values for the FDA co-crystal criterion
# Assay type: physicochemical
# test-settings: approximated by comparison with Gefitinib and Erlotinib; read-out: pKa of the second less basic function
# Text: As further confirmation that the products of the present inventions are co-crystals and not simply salts, the criterion adopted by the FDA Guidelines of April 2013 (see below) is here reported: the active ingredient-excipient complex should be classified as co-crystal if ΔpKa of the two species is <1.
property-label: pKa

CS(=O)(=O)CCNCc1ccc(-c2ccc3ncnc(Nc4ccc(OCc5cccc(F)c5)c(Cl)c4)c3c2)o1 [Lapatinib] yielded pKa of ~5.4

====

# protocol-notes: in vivo
# test-settings: Wistar, rat, plasma, po, 30 mg/kg
property-label: Cmax (ng/mL)
One number for each entry, in ng/mL.

CS(=O)(=O)CCNCc1ccc(-c2ccc3ncnc(Nc4ccc(OCc5cccc(F)c5)c(Cl)c4)c3c2)o1.Cc1ccc(S(=O)(=O)O)cc1 [Lapatinib ditosylate monohydrate, reference compound] yielded Cmax of 3510

====

# protocol-notes: Intravenous bolus pharmacokinetics, non-compartmental analysis, 10 mg Lapatinib/kg
# Format: in vivo
# test-settings: Wistar, rat, plasma; iv bolus 10 mg/kg, male rats
property-label: MRT last (h)
Numbers only, in h.

CS(=O)(=O)CCNCc1ccc(-c2ccc3ncnc(Nc4ccc(OCc5cccc(F)c5)c(Cl)c4)c3c2)o1.Cc1ccc(S(=O)(=O)O)cc1 [Lapatinib ditosylate monohydrate, reference compound] yielded MRT last of 1.54

====

# protocol-notes: in vivo
# test-settings: male, Wistar, rat, plasma, po, 30 mg/kg, t1/2app (apparent terminal elimination half-life), oral 30 mg/kg, male rats
property-label: half-life (h)
Give bare numbers, in h.

CS(=O)(=O)CCNCc1ccc(-c2ccc3ncnc(Nc4ccc(OCc5cccc(F)c5)c(Cl)c4)c3c2)o1.Cc1ccc(S(=O)(=O)O)cc1 [Lapatinib ditosylate monohydrate, reference compound] yielded half-life of 2.39

====

# protocol-notes: in vivo
# test-settings: Wistar, rat, plasma, po, 30 mg/kg
property-label: MRT inf (h)
Numbers only, in h.

CS(=O)(=O)CCNCc1ccc(-c2ccc3ncnc(Nc4ccc(OCc5cccc(F)c5)c(Cl)c4)c3c2)o1.Cc1ccc(S(=O)(=O)O)cc1 [Lapatinib ditosylate monohydrate, reference compound] yielded MRT inf of 4.31

====

# protocol-notes: Intravenous bolus pharmacokinetics, non-compartmental analysis, 10 mg Lapatinib/kg
# Format: in vivo
# test-settings: Wistar, rat, plasma; iv bolus 10 mg/kg in DMSO:PEG:WFI (10:40:50), male rats; read-out: C0 (extrapolated concentration at time 0)
property-label: C0 (ng/mL)
One number for each entry, in ng/mL.

CS(=O)(=O)CCNCc1ccc(-c2ccc3ncnc(Nc4ccc(OCc5cccc(F)c5)c(Cl)c4)c3c2)o1.Cc1ccc(S(=O)(=O)O)cc1 [Lapatinib ditosylate monohydrate, reference compound] yielded C0 of 20200

====

Please provide measured CL/F for the entries that follow.
# protocol-notes: in vivo
# test-settings: male, Wistar, rat, plasma, po, 30 mg/kg, CL/F, oral 30 mg/kg, male rats
Numbers only, in mL/min/kg.

CS(=O)(=O)CCNCc1ccc(-c2ccc3ncnc(Nc4ccc(OCc5cccc(F)c5)c(Cl)c4)c3c2)o1 [Form I] = 33.2

Kindly consider the entry below.
CS(=O)(=O)CCNCc1ccc(-c2ccc3ncnc(Nc4ccc(OCc5cccc(F)c5)c(Cl)c4)c3c2)o1.Cc1ccc(S(=O)(=O)O)cc1 [Lapatinib ditosylate monohydrate, reference compound] yielded CL/F of 21.2

====

# protocol-notes: in vivo
# test-settings: Wistar, rat, plasma, po, 30 mg/kg
property-label: Tmax (h)
Answers are plain numbers, in h.

CS(=O)(=O)CCNCc1ccc(-c2ccc3ncnc(Nc4ccc(OCc5cccc(F)c5)c(Cl)c4)c3c2)o1.Cc1ccc(S(=O)(=O)O)cc1 [Lapatinib ditosylate monohydrate, reference compound] yielded Tmax of 2

====

# protocol-notes: in vivo
# test-settings: Wistar, rat, plasma, po, 30 mg/kg
property-label: AUC (ng·h/mL)
Answers are plain numbers, in ng·h/mL.

CS(=O)(=O)CCNCc1ccc(-c2ccc3ncnc(Nc4ccc(OCc5cccc(F)c5)c(Cl)c4)c3c2)o1.Cc1ccc(S(=O)(=O)O)cc1 [Lapatinib ditosylate monohydrate, reference compound] yielded AUC of 18400

====

# protocol-notes: in vivo
# test-settings: male, Wistar, rat, in vivo, po, 30 mg/kg, MRTt (mean residence time), oral 30 mg/kg, male rats
property-label: MRT last (h)
Give bare numbers, in h.

CS(=O)(=O)CCNCc1ccc(-c2ccc3ncnc(Nc4ccc(OCc5cccc(F)c5)c(Cl)c4)c3c2)o1 [Form II] yielded MRT last of 4.67

====

# protocol-notes: in vivo
# test-settings: male, Wistar, rat, plasma, po, 30 mg/kg, AUCt, oral 30 mg/kg, male rats
property-label: AUC(0-t) (ng·h/mL)
Answers are plain numbers, in ng·h/mL.

CS(=O)(=O)CCNCc1ccc(-c2ccc3ncnc(Nc4ccc(OCc5cccc(F)c5)c(Cl)c4)c3c2)o1 [Form I] = 13300

Kindly consider the entry below.
CS(=O)(=O)CCNCc1ccc(-c2ccc3ncnc(Nc4ccc(OCc5cccc(F)c5)c(Cl)c4)c3c2)o1.Cc1ccc(S(=O)(=O)O)cc1 [Lapatinib ditosylate monohydrate, reference compound] yielded AUC(0-t) of 23600

====

# protocol-notes: in vivo
# test-settings: male, Wistar, rat, in vivo, 30 mg Lapatinib/kg, F (absolute bioavailability), oral 30 mg/kg AUCt compared with iv 10 mg/kg, male rats
property-label: bioavailability

CS(=O)(=O)CCNCc1ccc(-c2ccc3ncnc(Nc4ccc(OCc5cccc(F)c5)c(Cl)c4)c3c2)o1 [Form II] yielded bioavailability of 50.7%
